Measurement context: in chloroform, 288.15 K
Recorded endpoint: solubility (mole fraction)

Lab book: solubility (mole fraction) of COc1cc(Cl)nc(N)n1 noted as 0.00492

* * *

Measurement context: in n-propanol, 313.15 K
Recorded endpoint: solubility (mole fraction)
Numbers only.

Lab book: solubility (mole fraction) of COc1cc(Cl)nc(N)n1 noted as 0.0075

* * *

Measurement context: in isopropanol, 278.15 K
Recorded endpoint: solubility (mole fraction)

Lab book: solubility (mole fraction) of COc1cc(Cl)nc(N)n1 noted as 0.00149

* * *

Measurement context: in 1,4-dioxane, 318.15 K
Recorded endpoint: solubility (mole fraction)
Answers are plain numbers.

Lab book: solubility (mole fraction) of COc1cc(Cl)nc(N)n1 noted as 0.0648

The reported measurements were obtained from BigSolDB 2.1.
